# TARGET_DESC: human α-thrombin (Homo sapiens (Human))
# METHOD: Enzymatic assay for thrombin (Boc-VPR-AMC substrate)
# Type: biochemical
# EXPERIMENTAL_SETUP: read-out: Thrombin Ki
Where a name gives a salt, the structure may show the parent alone.
Please respond with reported Ki for every item in the list.

Recorded result, Cc1nc(N)ccc1CNC(=O)[C@H](C)NC(=O)[C@H]1C[C@@H](C(C)c2ccccc2)CN1 (mixture of isomers) [compound 1344, Dihydrochloride] , Ki: 2.5 to 10 µM

Recorded result, N=C(N)c1ccc(CNC(=O)[C@@H]2CCN2C(=O)[C@H](N)CCc2ccccc2)cc1 [compound 1038] , Ki: < 0.5 µM

Recorded result, C[C@H](NC(=O)[C@H]1C[C@H](c2ccccc2)CN1)C(=O)NCc1ccc(C(N)=O)nc1 [compound 1273] , Ki: > 25 µM

Recorded result, C[C@H](NC(=O)[C@H](N)CCc1ccccc1)C(=O)NCc1cnc(N)c(Cl)c1 [compound 1275] , Ki: > 25 µM
